# testSystem: Protein ENL (Homo sapiens, UniProt Q03111)
# Sequence (Q03111 whole entry): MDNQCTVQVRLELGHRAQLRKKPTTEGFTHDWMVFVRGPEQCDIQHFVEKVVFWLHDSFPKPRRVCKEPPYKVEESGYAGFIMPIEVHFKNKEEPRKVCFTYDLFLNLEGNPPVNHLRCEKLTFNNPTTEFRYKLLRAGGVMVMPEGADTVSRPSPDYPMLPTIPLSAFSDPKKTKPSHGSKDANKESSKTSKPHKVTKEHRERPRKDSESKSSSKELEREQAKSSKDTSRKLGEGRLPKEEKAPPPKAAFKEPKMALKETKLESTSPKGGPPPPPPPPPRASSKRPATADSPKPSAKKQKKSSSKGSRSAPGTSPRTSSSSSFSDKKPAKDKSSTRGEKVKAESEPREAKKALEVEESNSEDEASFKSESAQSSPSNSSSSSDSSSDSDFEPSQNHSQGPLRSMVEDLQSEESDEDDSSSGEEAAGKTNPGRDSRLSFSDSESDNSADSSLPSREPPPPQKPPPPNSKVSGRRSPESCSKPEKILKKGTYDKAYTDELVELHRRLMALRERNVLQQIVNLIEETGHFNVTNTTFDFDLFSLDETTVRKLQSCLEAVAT
Square brackets hold non-standard residues; d marks the D form. Peptide text beside a SMILES is read from it. * marks the point of attachment. X3 = c1ccc(-c2cn(CC3CCCCC3)c([C@@H]3CCCN3*)n2)cc1; Ala(cPent) = N[C@@H](CC1CCCC1)C(=O)O; Chg = N[C@H](C(=O)O)C1CCCCC1; Dap = NC[C@H](N)C(=O)O; Bz = O=C(c1ccccc1)*
resultType: pIC50
pIC50 is defined as minus the log10 of a concentration measured in mol/L.

- CC[C@H](C)[C@H](NC(=O)[C@@H]1CCCN1C(=O)[C@H](CC(C)C)NC(C)=O)C(=O)N[C@@H](CN)C(=O)N[C@H](C(=O)N1CCC[C@H]1C(=O)N[C@@H](CC(C)C)C(=O)N(C)C)[C@@H](C)CC (Ac-LPI[Dap]IPL-NMe2): 5.37
- CC[C@H](C)[C@H](NC(=O)[C@@H]1CCCN1C(=O)[C@H](CC(C)C)NC(C)=O)C(=O)N[C@@H](CO)C(=O)N[C@H](C(=O)N1CCC[C@H]1C(=O)N[C@@H](CC(C)C)C(=O)N(C)C)C1CCCCC1 (Ac-LPIS[Chg]PL-NMe2): 4.98
- CC(C)[C@H](NC(=O)[C@@H]1CCCN1C(=O)c1ccccc1)C(=O)N[C@@H](CN)C(=O)N[C@@H](CC1CCCC1)C(=O)N1CCC[C@H]1c1nc(-c2ccccc2)cn1CC1CCCCC1 (Bz-PV[Dap][Ala(cPent)]-X3): 6.30

// below: pIC50 requested for another compound
// fetch pIC50 given entry CC[C@H](C)[C@H](NC(=O)[C@H](CO)NC(=O)[C@H](CC(C)C)NC(=O)[C@@H]1CCCN1C(=O)[C@H](CC(C)C)NC(C)=O)C(=O)N1CCC[C@H]1C(=O)N[C@@H](CC(C)C)C(=O)N(C)C (Ac-LPLSIPL-NMe2)
4.36

---

# testSystem: Protein ENL (Homo sapiens)
# assayComment: Displacement of N-Flu-DOT1L from MBP-tagged ENL (unknown origin) (489 to 559 residues) expressed in Escherichia coli BL21(DE3) measured after 3 hrs by fluorescence polarization assay
resultType: pKi
pKi is defined as minus the log10 of a concentration measured in mol/L.

- Ac-LPVSIPL-NH2: 5.84

// fetch pKi given entry "Ac-LPISIPL-NH2"
5.47

// fetch pKi given entry "Ac-LPISIPLSTV-NH2"
6.82

---

# testSystem: Protein ENL (Homo sapiens, UniProt Q03111)
# Sequence (Q03111 whole entry): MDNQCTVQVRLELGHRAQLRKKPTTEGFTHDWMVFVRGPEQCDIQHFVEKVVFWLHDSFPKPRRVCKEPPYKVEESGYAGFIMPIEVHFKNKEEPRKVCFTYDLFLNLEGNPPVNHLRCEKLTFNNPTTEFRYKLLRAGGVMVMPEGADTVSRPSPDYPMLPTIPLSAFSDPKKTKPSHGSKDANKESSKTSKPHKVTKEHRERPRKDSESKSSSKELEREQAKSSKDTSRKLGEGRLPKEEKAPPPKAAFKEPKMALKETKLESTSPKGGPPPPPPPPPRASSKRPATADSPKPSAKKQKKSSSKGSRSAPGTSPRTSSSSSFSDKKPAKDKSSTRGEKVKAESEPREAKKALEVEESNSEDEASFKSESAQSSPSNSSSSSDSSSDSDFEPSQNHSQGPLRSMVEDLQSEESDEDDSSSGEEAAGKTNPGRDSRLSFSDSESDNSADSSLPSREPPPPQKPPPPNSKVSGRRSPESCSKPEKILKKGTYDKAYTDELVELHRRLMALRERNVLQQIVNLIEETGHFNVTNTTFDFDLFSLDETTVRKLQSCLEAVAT
Square brackets hold non-standard residues; d marks the D form. Peptide text beside a SMILES is read from it. * marks the point of attachment. Biotinyl(3aR,4S,6aS) = O=C1N[C@H]2[C@H](CCCCC(=O)*)SC[C@H]2N1; Ala(cPent) = N[C@@H](CC1CCCC1)C(=O)O; Chg = N[C@H](C(=O)O)C1CCCCC1; Dap = NC[C@H](N)C(=O)O; Ahx = NCCCCCC(=O)O
resultType: pKi
pKi is defined as minus the log10 of a concentration measured in mol/L.

• CC(C)C[C@H](NC(=O)[C@@H]1CCCN1C(=O)[C@H](CC1CCCC1)NC(=O)[C@H](CN)NC(=O)[C@@H](NC(=O)[C@@H]1CCCN1C(=O)[C@H](CC(C)C)NC(=O)CCCCCNC(=O)CCCC[C@@H]1SC[C@H]2NC(=O)N[C@@H]12)C(C)C)C(=O)N(C)C ({Biotinyl(3aR,4S,6aS)-Ahx}-LPV[Dap][Ala(cPent)]PL-NMe2) = 7.20

// below: pKi requested for another compound
Provide the reported pKi (system: Protein ENL (Homo sapiens, UniProt Q03111)) for CC[C@H](C)[C@H](NC(=O)[C@@H]1CCCN1C(=O)[C@H](CC(C)C)NC(C)=O)C(=O)N[C@@H](CO)C(=O)N[C@H](C(=O)N1CCC[C@H]1C(=O)N[C@@H](CC(C)C)C(=O)N(C)C)C1CCCCC1 (Ac-LPIS[Chg]PL-NMe2)
5.46

---

# testSystem: Protein ENL (Homo sapiens, UniProt Q03111)
# Sequence (Q03111 whole entry): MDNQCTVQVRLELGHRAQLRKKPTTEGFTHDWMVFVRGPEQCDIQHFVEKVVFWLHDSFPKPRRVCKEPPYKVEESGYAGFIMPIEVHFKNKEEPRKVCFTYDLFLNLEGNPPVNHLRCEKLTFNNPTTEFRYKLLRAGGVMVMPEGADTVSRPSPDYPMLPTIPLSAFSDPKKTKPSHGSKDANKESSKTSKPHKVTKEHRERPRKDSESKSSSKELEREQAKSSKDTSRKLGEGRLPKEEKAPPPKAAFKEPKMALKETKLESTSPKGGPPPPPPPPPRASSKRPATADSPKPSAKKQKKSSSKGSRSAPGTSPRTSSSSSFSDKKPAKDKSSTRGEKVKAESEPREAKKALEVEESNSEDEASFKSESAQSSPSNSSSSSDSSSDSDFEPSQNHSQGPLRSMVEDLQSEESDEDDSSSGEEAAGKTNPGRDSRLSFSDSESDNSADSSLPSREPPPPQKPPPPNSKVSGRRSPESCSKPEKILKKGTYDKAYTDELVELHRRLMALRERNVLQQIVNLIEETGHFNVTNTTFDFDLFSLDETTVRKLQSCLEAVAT
Square brackets hold non-standard residues; d marks the D form. Peptide text beside a SMILES is read from it. * marks the point of attachment. X1 = CCn1cc(-c2ccccc2)nc1[C@@H]1CCCN1*; Ala(cPent) = N[C@@H](CC1CCCC1)C(=O)O; Cba = N[C@@H](CC1CCC1)C(=O)O; Dap = NC[C@H](N)C(=O)O
resultType: pIC50
pIC50 is defined as minus the log10 of a concentration measured in mol/L.

Solved entries (count: 3):
• CC[C@H](C)[C@H](NC(=O)[C@H](CO)NC(=O)[C@H](CC1CCC1)NC(=O)[C@@H]1CCCN1C(=O)[C@H](CC(C)C)NC(C)=O)C(=O)N1CCC[C@H]1C(=O)N[C@@H](CC(C)C)C(=O)N(C)C (Ac-LP[Cba]SIPL-NMe2) = 4.63
• CC[C@H](C)[C@H](NC(=O)[C@@H]1CCCN1C(=O)[C@H](CC(C)C)NC(C)=O)C(=O)N[C@@H](CO)C(=O)N[C@H](C(=O)N1CCC[C@H]1C(=O)N[C@@H](CC(C)C)C(=O)N(C)C)[C@@H](C)CC (Ac-LPISIPL-NMe2) = 5.17
• CC[C@H](C)[C@H](NC(=O)[C@H](CO)NC(=O)[C@@H](NC(=O)[C@@H]1CCCN1C(=O)[C@H](CC(C)C)NC(C)=O)C(C)C)C(=O)N1CCC[C@H]1C(=O)N[C@@H](CC(C)C)C(=O)N(C)C (Ac-LPVSIPL-NMe2) = 5.44

// below: pIC50 requested for another compound
// fetch pIC50 given entry CCn1cc(-c2ccccc2)nc1[C@@H]1CCCN1C(=O)[C@H](CC1CCCC1)NC(=O)[C@H](CN)NC(=O)[C@@H](NC(=O)[C@@H]1CCCN1C(=O)[C@H](CC(C)C)NC(C)=O)C(C)C (Ac-LPV[Dap][Ala(cPent)]-X1)
5.80
